- System: panel of breast cancer cell lines
- protocol: Compound A with targeted agents and chemotherapies, 72-hour in vitro proliferation assays
- Type: cell-based
- experimentalContext: HCC70; compound A × partner, 72-hour proliferation
Counter-ions that a name gives are not always drawn.
Mark Fulfilled for reported Best CI of 0.5 or greater; mark Not fulfilled for anything smaller.

• CN(C)C(=O)c1cc2cnc(Nc3ccc(N4CCNCC4)cn3)nc2n1C1CCCC1 = Fulfilled
• CC(C)NC[C@@H](C(=O)N1CCN(c2ncnc3c2[C@H](C)C[C@H]3O)CC1)c1ccc(Cl)cc1 = Not fulfilled
• CCN1CCN(Cc2ccc(Nc3ncc(F)c(-c4cc(F)c5nc(C)n(C(C)C)c5c4)n3)nc2)CC1 = Fulfilled
• CC1(C)CCC(c2ccc(Cl)cc2)=C(CN2CCN(c3ccc(C(=O)NS(=O)(=O)c4ccc(N[C@H](CCN5CCOCC5)CSc5ccccc5)c(S(=O)(=O)C(F)(F)F)c4)cc3)CC2)C1 = Not fulfilled
• N.N.[Cl][Pt][Cl] [Cisplatin] = Not fulfilled
• CS(=O)(=O)CCNCc1ccc(-c2ccc3ncnc(Nc4ccc(OCc5cccc(F)c5)c(Cl)c4)c3c2)o1 [Lapatinib Ditosylate] = Not fulfilled
• N.N.O=C([O-])C1(C(=O)[O-])CCC1.[Pt+2] = Not fulfilled
• Nc1ccn([C@@H]2O[C@H](CO)[C@@H](O)C2(F)F)c(=O)n1 [Gemcitabine Hydrochloride] = Not fulfilled
• CC1(C)CCC(CN2CCN(c3ccc(C(=O)NS(=O)(=O)c4ccc(NCC5CCOCC5)c([N+](=O)[O-])c4)c(Oc4cnc5[nH]ccc5c4)c3)CC2)=C(c2ccc(Cl)cc2)C1 = Not fulfilled
• Cn1ncnc1[C@H]1c2n[nH]c(=O)c3cc(F)cc(c23)N[C@@H]1c1ccc(F)cc1 = Not fulfilled
• O=C(c1cc(Cc2n[nH]c(=O)c3ccccc23)ccc1F)N1CCN(C(=O)C2CC2)CC1 = Fulfilled
• Cc1c(-c2ccc(N3CCc4cccc(C(=O)Nc5nc6ccccc6s5)c4C3)nc2C(=O)O)cnn1CC12CC3CC(CC(C3)C1)C2 = Not fulfilled

###

- Test system: panel of breast cancer cell lines
- protocol: Compound A with targeted agents and chemotherapies, 72-hour in vitro proliferation assays
- Assay type: cell-based
- experimentalContext: HDQ-P1; compound A × partner, 72-hour proliferation
measuredAttribute: Bliss Volume

- CO[C@H]1C[C@@H]2CC[C@@H](C)[C@@](O)(O2)C(=O)C(=O)N2CCCC[C@H]2C(=O)O[C@H]([C@H](C)C[C@@H]2CC[C@@H](OCCO)[C@H](OC)C2)CC(=O)[C@H](C)/C=C(\C)[C@@H](O)[C@@H](OC)C(=O)[C@H](C)C[C@H](C)/C=C/C=C/C=C/1C [Everolimus]: 6.97
- CCOc1cc2ncc(C#N)c(Nc3ccc(OCc4ccccn4)c(Cl)c3)c2cc1NC(=O)/C=C/CN(C)C [Neratinib]: 10.17
- CCN1CCN(Cc2ccc(Nc3ncc(F)c(-c4cc(F)c5nc(C)n(C(C)C)c5c4)n3)nc2)CC1 [Abemaciclib]: −0.79

###

- System: panel of breast cancer cell lines
- protocol: Compound A with targeted agents and chemotherapies, 72-hour in vitro proliferation assays
- Format: cell-based
- experimentalContext: CAL-85-1 cell line; compound A × partner; 72-hour proliferation
Where a name gives a salt, the structure may show the parent alone.
Labelling field: enter yes (1) if recorded Bliss Volume is less than 5. Enter no (0) if it equals or exceeds that cut-off.

- CC(=O)c1c(C)c2cnc(Nc3ccc(N4CCNCC4)cn3)nc2n(C2CCCC2)c1=O: yes (1)
- CC(=O)O[C@@]12CO[C@@H]1C[C@H](O)[C@@]1(C)C(=O)[C@H](O)C3=C(C)[C@@H](OC(=O)[C@H](O)[C@@H](NC(=O)OC(C)(C)C)c4ccccc4)C[C@@](O)([C@@H](OC(=O)c4ccccc4)[C@H]21)C3(C)C: no (0)
- CCOc1cc2ncc(C#N)c(Nc3ccc(OCc4ccccn4)c(Cl)c3)c2cc1NC(=O)/C=C/CN(C)C: no (0)
- CO[C@H]1C[C@@H]2CC[C@@H](C)[C@@](O)(O2)C(=O)C(=O)N2CCCC[C@H]2C(=O)O[C@H]([C@H](C)C[C@@H]2CC[C@@H](OCCO)[C@H](OC)C2)CC(=O)[C@H](C)/C=C(\C)[C@@H](O)[C@@H](OC)C(=O)[C@H](C)C[C@H](C)/C=C/C=C/C=C/1C: no (0)
- CC1(C)CCC(c2ccc(Cl)cc2)=C(CN2CCN(c3ccc(C(=O)NS(=O)(=O)c4ccc(N[C@H](CCN5CCOCC5)CSc5ccccc5)c(S(=O)(=O)C(F)(F)F)c4)cc3)CC2)C1: no (0)
- CN(C)C(=O)c1cc2cnc(Nc3ccc(N4CCNCC4)cn3)nc2n1C1CCCC1: yes (1)
- Cn1ncnc1[C@H]1c2n[nH]c(=O)c3cc(F)cc(c23)N[C@@H]1c1ccc(F)cc1: no (0)
- CCN1CCN(Cc2ccc(Nc3ncc(F)c(-c4cc(F)c5nc(C)n(C(C)C)c5c4)n3)nc2)CC1: yes (1)
- CC1(C)CCC(CN2CCN(c3ccc(C(=O)NS(=O)(=O)c4ccc(NCC5CCOCC5)c([N+](=O)[O-])c4)c(Oc4cnc5[nH]ccc5c4)c3)CC2)=C(c2ccc(Cl)cc2)C1: yes (1)
- N.N.O=C([O-])C1(C(=O)[O-])CCC1.[Pt+2]: yes (1)
- Nc1ccn([C@@H]2O[C@H](CO)[C@@H](O)C2(F)F)c(=O)n1 [Gemcitabine Hydrochloride]: no (0)
- N.N.[Cl][Pt][Cl] [Cisplatin]: no (0)
- C[C@]12CC[C@@H]3c4ccc(O)cc4C[C@@H](CCCCCCCCC[S+]([O-])CCCC(F)(F)C(F)(F)F)[C@H]3[C@@H]1CC[C@@H]2O (stereo partly shown): yes (1)

###

# Loewe Volume per record follows
- Test system: panel of breast cancer cell lines
- protocol: Compound A with targeted agents and chemotherapies, 72-hour in vitro proliferation assays
- Assay type: cell-based
- experimentalContext: CAL-85-1 cell line; compound A × partner; 72-hour proliferation
Structures can show the parent of a compound that is named as a salt.
measuredAttribute: Loewe Volume

- CC(=O)O[C@@]12CO[C@@H]1C[C@H](O)[C@@]1(C)C(=O)[C@H](O)C3=C(C)[C@@H](OC(=O)[C@H](O)[C@@H](NC(=O)OC(C)(C)C)c4ccccc4)C[C@@](O)([C@@H](OC(=O)c4ccccc4)[C@H]21)C3(C)C: 11.10
- CO[C@H]1C[C@@H]2CC[C@@H](C)[C@@](O)(O2)C(=O)C(=O)N2CCCC[C@H]2C(=O)O[C@H]([C@H](C)C[C@@H]2CC[C@@H](OCCO)[C@H](OC)C2)CC(=O)[C@H](C)/C=C(\C)[C@@H](O)[C@@H](OC)C(=O)[C@H](C)C[C@H](C)/C=C/C=C/C=C/1C: 13.60
- Cc1c(-c2ccc(N3CCc4cccc(C(=O)Nc5nc6ccccc6s5)c4C3)nc2C(=O)O)cnn1CC12CC3CC(CC(C3)C1)C2: 53.39
- CCN1CCN(Cc2ccc(Nc3ncc(F)c(-c4cc(F)c5nc(C)n(C(C)C)c5c4)n3)nc2)CC1: 3.04
- CC(=O)c1c(C)c2cnc(Nc3ccc(N4CCNCC4)cn3)nc2n(C2CCCC2)c1=O: −7.47
- CC(C)NC[C@@H](C(=O)N1CCN(c2ncnc3c2[C@H](C)C[C@H]3O)CC1)c1ccc(Cl)cc1: 1.63
- O=C(c1cc(Cc2n[nH]c(=O)c3ccccc23)ccc1F)N1CCN(C(=O)C2CC2)CC1: 6.67
- Nc1ccn([C@@H]2O[C@H](CO)[C@@H](O)C2(F)F)c(=O)n1 [Gemcitabine Hydrochloride]: 7.81
- Cn1ncnc1[C@H]1c2n[nH]c(=O)c3cc(F)cc(c23)N[C@@H]1c1ccc(F)cc1: 13.04
- CC1(C)CCC(c2ccc(Cl)cc2)=C(CN2CCN(c3ccc(C(=O)NS(=O)(=O)c4ccc(N[C@H](CCN5CCOCC5)CSc5ccccc5)c(S(=O)(=O)C(F)(F)F)c4)cc3)CC2)C1: 15.97
- CN(C)C(=O)c1cc2cnc(Nc3ccc(N4CCNCC4)cn3)nc2n1C1CCCC1: −7.95
- CC1(C)CCC(CN2CCN(c3ccc(C(=O)NS(=O)(=O)c4ccc(NCC5CCOCC5)c([N+](=O)[O-])c4)c(Oc4cnc5[nH]ccc5c4)c3)CC2)=C(c2ccc(Cl)cc2)C1: −1.27

###

- System: panel of breast cancer cell lines
- protocol: Compound A with targeted agents and chemotherapies, 72-hour in vitro proliferation assays
- Assay type: cell-based
- experimentalContext: T47D cells; combination of compound A with the named agent; 72-hour proliferation
Below is a list of entries, each paired with its recorded HSA volume value.
measuredAttribute: HSA volume

- CO[C@H]1C[C@@H]2CC[C@@H](C)[C@@](O)(O2)C(=O)C(=O)N2CCCC[C@H]2C(=O)O[C@H]([C@H](C)C[C@@H]2CC[C@@H](OCCO)[C@H](OC)C2)CC(=O)[C@H](C)/C=C(\C)[C@@H](O)[C@@H](OC)C(=O)[C@H](C)C[C@H](C)/C=C/C=C/C=C/1C: 2.87
- N.N.[Cl][Pt][Cl] [Cisplatin]: 0.03
- C[C@]12CC[C@@H]3c4ccc(O)cc4C[C@@H](CCCCCCCCC[S+]([O-])CCCC(F)(F)C(F)(F)F)[C@H]3[C@@H]1CC[C@@H]2O (some centres unmarked): 2.12
- CC(=O)O[C@@]12CO[C@@H]1C[C@H](O)[C@@]1(C)C(=O)[C@H](O)C3=C(C)[C@@H](OC(=O)[C@H](O)[C@@H](NC(=O)OC(C)(C)C)c4ccccc4)C[C@@](O)([C@@H](OC(=O)c4ccccc4)[C@H]21)C3(C)C: 2.30
- N.N.O=C([O-])C1(C(=O)[O-])CCC1.[Pt+2]: −1.67
